molecular target: c-Myc/Max/Ebox DNA (Homo sapiens, UniProt P01106); construct: his6 (cleaved yes); assay: c-Myc/Max/Ebox DNA AlphaScreen Assay; format: binding; conditions: Table 2, compounds of FIG. 1; calculated IC50 class
Sequence (P01106 whole entry): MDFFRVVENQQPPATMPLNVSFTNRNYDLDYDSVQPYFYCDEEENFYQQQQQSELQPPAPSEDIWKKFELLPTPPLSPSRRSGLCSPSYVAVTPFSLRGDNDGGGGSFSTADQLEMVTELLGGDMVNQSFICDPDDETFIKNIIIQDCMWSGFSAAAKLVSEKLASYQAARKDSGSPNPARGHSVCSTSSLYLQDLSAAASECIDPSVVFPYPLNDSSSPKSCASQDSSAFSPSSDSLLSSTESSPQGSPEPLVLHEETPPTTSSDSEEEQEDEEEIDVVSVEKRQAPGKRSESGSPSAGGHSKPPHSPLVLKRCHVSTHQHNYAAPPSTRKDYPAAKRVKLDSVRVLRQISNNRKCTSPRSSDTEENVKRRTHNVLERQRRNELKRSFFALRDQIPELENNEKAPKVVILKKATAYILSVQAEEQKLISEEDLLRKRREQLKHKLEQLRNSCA
pIC50: −log10 of the molar value.
value_type: pIC50

Known pIC50 results, listed for orientation:
molecule: COCCNCCC(=O)Nc1sc2c(c1-c1nc3ccc(-c4ccc(O)nc4)cc3s1)CCNC2
target_or_system: c-Myc/Max/Ebox DNA (Homo sapiens, UniProt P01106)
pIC50: > 6.52
--
molecule: Cc1cn(-c2ccc3nc(-c4c(NC(=O)CCNC(C)C)sc5c4CCNC5)sc3c2)cn1
target_or_system: c-Myc/Max/Ebox DNA (Homo sapiens, UniProt P01106)
pIC50: > 6.52
--
molecule: CC(C)NCCC(=O)Nc1sc2c(c1-c1nc3ccccc3s1)CC(C)NC2C (single isomer, unassigned) [Compound 196]
target_or_system: c-Myc/Max/Ebox DNA (Homo sapiens, UniProt P01106)
pIC50: 6.00 to 6.52

Ask | // returns reported pIC50 for input `CC(C)NCCC(=O)Nc1sc2c(c1-c1nc3c(Br)cccc3s1)CCNC2`
Reply | > 6.52

###

Please provide measured IC50 for the entries that follow.
molecular target: c-Myc/Max/Ebox DNA (Homo sapiens, UniProt P01106); construct: his6 (cleaved yes); test: c-Myc/Max/Ebox DNA AlphaScreen Assay; type: binding; details: Table 3, compounds of FIG. 2; calculated IC50 class

Known IC50 results, listed for orientation:
compound: CC(=O)Nc1sc2c(c1-c1nc3ccccc3s1)CCN(C(C)C)C2
target_or_system: c-Myc/Max/Ebox DNA (Homo sapiens, UniProt P01106)
IC50: 300 to 1000 nM

compound: CC(=O)Nc1sc2c(c1-c1nc3ccccc3s1)CC(C(F)(F)F)NC2 (centres unmarked)
target_or_system: c-Myc/Max/Ebox DNA (Homo sapiens, UniProt P01106)
IC50: > 10000 nM

compound: CC(=O)Nc1sc2c(c1-c1nc3cc4c(cc3s1)OCO4)CCNC2
target_or_system: c-Myc/Max/Ebox DNA (Homo sapiens, UniProt P01106)
IC50: 1000 to 10000 nM

compound: CC(=O)Nc1sc2c(c1-c1nc3c(C)cccc3s1)CCNC2
target_or_system: c-Myc/Max/Ebox DNA (Homo sapiens, UniProt P01106)
IC50: 300 to 1000 nM

Parameters: items (list). Returns: IC50 for each item.
1. CCN1[C@H](C)Cc2c(sc(NC(C)=O)c2-c2nc3ccccc3s2)[C@@H]1C
2. CC(=O)Nc1sc2c(c1-c1nc3ccccc3s1)[C@H](C)CN(C(C)C)C2
3. CC(=O)Nc1sc2c(c1-c1nc3ccccc3s1)C[C@@H](C)N[C@H]2C (relative stereo) [Compound 206]
4. CC(=O)Nc1sc2c(c1-c1nc3ccc(C)cc3s1)CCNC2

Reply |
1000 to 10000 nM
1000 to 10000 nM
1000 to 10000 nM
300 to 1000 nM

###

target: c-Myc/Max/Ebox DNA (Homo sapiens); construct: his6 (cleaved yes); test: c-Myc/Max/Ebox DNA AlphaScreen Assay; format: binding; settings: Table 3, compounds of FIG. 2; calculated IC50 class
Please provide measured IC50 for the entries that follow.

Known IC50 results, listed for orientation:
compound: CC(=O)N(C)c1sc2c(c1-c1nc3ccccc3s1)CCNC2 [Compound 232]
target_or_system: c-Myc/Max/Ebox DNA (Homo sapiens)
IC50: > 10 µM

compound: CC(=O)Nc1sc2c(c1-c1nc3cc4c(cc3s1)OCO4)CCN(C(C)C)C2 [Compound 236]
target_or_system: c-Myc/Max/Ebox DNA (Homo sapiens)
IC50: 0.3 to 1 µM

compound: CC(=O)Nc1sc2c(c1-c1nc3ccccc3s1)C(C)CCNC2 (stereo not drawn) [Compound 212]
target_or_system: c-Myc/Max/Ebox DNA (Homo sapiens)
IC50: > 10 µM

compound: CC(=O)Nc1sc2c(c1-c1nc3ccccc3s1)[C@@H](C)CN(C(C)C)C2 [Compound 208]
target_or_system: c-Myc/Max/Ebox DNA (Homo sapiens)
IC50: 1 to 10 µM

compound: CC(=O)Nc1sc2c(c1-c1nc3cc(C(F)(F)F)ccc3s1)CCNC2 [Compound 204]
target_or_system: c-Myc/Max/Ebox DNA (Homo sapiens)
IC50: 1 to 10 µM

Parameters: items (list). Returns: IC50 for each item.
1. CC(=O)Nc1sc2c(c1-c1nc3ccccc3s1)CCC(N(C)C)C2 (stereo not drawn) [Compound 223]
2. CC(=O)Nc1sc2c(c1-c1nc3ccccc3s1)C(C)CNC2 (stereo not drawn) [Compound 205]
3. CC(=O)Nc1sc2c(c1-c1nc3ccccc3s1)CCNC2C (stereo not drawn) [Compound 210]
4. CC(=O)Nc1sc2c(c1-c1nc3ccccc3s1)C[C@@H](C)N[C@H]2C [Compound 218]

Reply |
1. 1 to 10 µM
2. > 10 µM
3. 1 to 10 µM
4. 1 to 10 µM

###

system: human small lung cancer cell line H2171; experiment: Cell Viability Assay (ATPlite); format: cell-based; settings: Table 2, compounds of FIG. 1; H2171 cells, three days, ATPlite; calculated IC50 class; listed as 116; read-out: H2171 Activity
pIC50: −log10 of the molar value.
value_type: pIC50

Ask | // returns reported pIC50 for input CCC(C)NCCC(=O)Nc1sc2c(c1-c1nc3cc4c(cc3s1)OCO4)CCNC2 (stereo not shown)
Reply | 5.00 to 6.00

###

target: c-Myc/Max/Ebox DNA (Homo sapiens); construct: his6 (cleaved yes); test: c-Myc/Max/Ebox DNA AlphaScreen Assay; type: binding; settings: Table 2, compounds of FIG. 1; calculated IC50 class
Please provide measured IC50 for the entries that follow.

Known IC50 results, listed for orientation:
compound: COCCNCCC(=O)Nc1sc2c(c1-c1nc3cc(-c4cnn(C)c4)ccc3s1)CC(C)NC2C (single isomer, unassigned) [Compound 567]
IC50: 1000 to 10000 nM

compound: O=C(CCNCCc1cccnc1)Nc1sc2c(c1-c1nc3ccccc3s1)CCNC2
IC50: 1000 to 10000 nM

Parameters: items (list). Returns: IC50 for each item.
1. CC[C@H](C)NCCC(=O)Nc1sc2c(c1-c1nc3ccccc3s1)CCN(C(C)C)C2
2. CC(C)N1CCc2c(sc(NC(=O)CCN3CCC3)c2-c2nc3ccccc3s2)C1

Reply |
1. < 300 nM
2. 300 to 1000 nM

###

target: c-Myc/Max/Ebox DNA (Homo sapiens); construct: his6 (cleaved yes); experiment: c-Myc/Max/Ebox DNA AlphaScreen Assay; format: binding; settings: Table 2, compounds of FIG. 1; calculated IC50 class
value_type: IC50

Known IC50 results, listed for orientation:
compound: O=C(CCN[C@@H]1C[C@H]2CNC[C@H]2C1)Nc1sc2c(c1-c1nc3ccccc3s1)CCNC2
value_type: IC50
result: 300 to 1000 nM
//
compound: CC(C)N1CCc2c(sc(NC(=O)CCNCc3cnn(C)c3)c2-c2nc3ccccc3s2)C1
value_type: IC50
result: 300 to 1000 nM
//
compound: O=C(CCNCCO)Nc1sc2c(c1-c1nc3ccccc3s1)CCNC2
value_type: IC50
result: < 300 nM

Parameters: items (list). Returns: IC50 for each item.
1. COCCNCCC(=O)Nc1sc2c(c1-c1nc3ccc(C4=CCNCC4)cc3s1)CCNC2
2. COCCNCCC(=O)Nc1sc2c(c1-c1nc3ccc(-c4cnn(C(C)C)c4)cc3s1)CCNC2
3. COCCNCCC(=O)Nc1sc2c(c1-c1nc3ccc(-c4cc(C)[nH]n4)cc3s1)CCNC2
4. COCCNCCC(=O)Nc1sc2c(c1-c1nc3ccc(-c4cnoc4)cc3s1)CCNC2
5. CC[C@@H](C)NCCC(=O)Nc1sc2c(c1-c1nc3cc(C(F)(F)F)ccc3s1)CCNC2
6. CC[C@@H](C)NCCC(=O)Nc1sc2c(c1-c1nc3ccccc3s1)CCNC2
7. COCCNCCC(=O)Nc1sc2c(c1-c1nc3cc(-c4cnn(C)c4)ccc3s1)CCNC2
8. CC[C@H](C)NCCC(=O)Nc1sc2c(c1-c1nc3ccccc3s1)CCN(C1CC(F)(F)C1)C2

Reply |
< 300 nM
< 300 nM
< 300 nM
< 300 nM
< 300 nM
300 to 1000 nM
< 300 nM
1000 to 10000 nM

Parameters: items (list). Returns: IC50 for each item.
1. CC[C@H](C)NCCC(=O)Nc1sc2c(c1-c1nc3cc(-c4ccncc4)ccc3s1)C[C@@H](C)NC2
2. CC[C@H](C)NCCC(=O)Nc1sc2c(c1-c1nc3ccccc3s1)CC(C)NC2C (single isomer, unassigned) [Compound 620]
3. COCCNCCC(=O)Nc1sc2c(c1-c1nc3ccc(F)cc3s1)CCNC2
4. COCCNCCC(=O)Nc1sc2c(c1-c1nc3cc(-c4ccncc4)ccc3s1)CCNC2C (single isomer, unassigned) [Compound 548]
5. CC(C)NCCC(=O)Nc1sc2c(c1-c1nc3ccc(-c4cccnc4)cc3s1)CCNC2
6. CC[C@H](C)NCCC(=O)Nc1sc2c(c1-c1nc3ccccc3s1)CC(C)NC2C (single isomer, unassigned) [Compound 621]
7. COCCNCCC(=O)Nc1sc2c(c1-c1nc3cc(-c4cccnc4)ccc3s1)CC(C)NC2C (single isomer, unassigned) [Compound 524]

Reply |
1: < 300 nM; 2: 1000 to 10000 nM; 3: 300 to 1000 nM; 4: < 300 nM; 5: < 300 nM; 6: > 10000 nM; 7: < 300 nM

Parameters: items (list). Returns: IC50 for each item.
1. O=C(O)CNCCC(=O)Nc1sc2c(c1-c1nc3ccccc3s1)CCNC2
2. COCCNC(=O)c1ccc2sc(-c3c(NC(=O)CCNC(C)C)sc4c3CCNC4)nc2c1
3. COCCNCCC(=O)Nc1sc2c(c1-c1nc3cc(-c4ccncc4)ccc3s1)CC(C)NC2C (single isomer, unassigned) [Compound 521]
4. CC(C)NCCC(=O)Nc1sc2c(c1-c1nc3ccccc3s1)CC(C)NC2C (single isomer, unassigned) [Compound 198]
5. CC[C@@H](C)NCCC(=O)Nc1sc2c(c1-c1nc3cc(C(F)(F)F)ccc3s1)CCN(C(C)C)C2
6. CCC(C)NCCC(=O)Nc1sc2c(c1-c1nc3cc(-n4cnc(C)c4)ccc3s1)CCNC2 (stereo not drawn)
7. CCC(C)NCCC(=O)N(C)c1sc2c(c1-c1nc3ccccc3s1)CCNC2 (stereo not drawn)
8. CCC(C)NCCC(=O)Nc1sc2c(c1-c1nc3cc(C(F)(F)F)ccc3s1)CCNC2 (stereo not drawn)

Reply |
["300 to 1000 nM", "< 300 nM", "< 300 nM", "1000 to 10000 nM", "< 300 nM", "< 300 nM", "1000 to 10000 nM", "300 to 1000 nM"]
